Measured melting point, listed per entry.

Some solved entries appear below for comparison.
COC(=O)C1=C(C)N=C2SC(=NNc3ccccc3C(=O)OC)C(=O)N2C1c1ccc(OC)cc1 (stereo not shown) [Compound 12b] yielded melting point of 219 to 221 °C

COC(=O)C1=C(C)N=C2SC(=NNc3ccccc3S(=O)(=O)O)C(=O)N2C1c1ccc(OC)c(OC)c1OC (stereo not shown) [Compound 11e] yielded melting point of 238 to 240 °C

COC(=O)C1=C(C)N=C2S/C(=N\Nc3ccccc3C(=O)OC)C(=O)N2C1c1ccccc1 (stereo not shown) [Compound 10d] yielded melting point of 184 to 186 °C

COC(=O)C1=C(C)N=C2SC(=NNc3ccccc3OC)C(=O)N2C1c1ccc(OC)c(OC)c1OC (stereo not shown) [Compound 11a] yielded melting point of 178 to 180 °C

COC(=O)C1=C(C)N=C2S/C(=N\Nc3ccc4ccccc4c3S(=O)(=O)O)C(=O)N2C1c1ccc(OC)c(OC)c1OC (stereo not shown) [Compound 11g] yielded melting point of 241 to 244 °C

***
COC(=O)C1=C(C)N=C2SC(=NNc3ccccc3)C(=O)N2C1c1ccccc1 (stereo not shown) [Compound 10j] yielded melting point of 124 to 127 °C

COC(=O)C1=C(C)N=C2SC(=NNc3ccccc3)C(=O)N2C1c1ccc(OC)c(OC)c1OC (stereo not shown) [Compound 11b] yielded melting point of 189 to 192 °C
